So I've got AC50 readings for UniProtKB O43193, take a look.
Sequence (O43193 whole entry): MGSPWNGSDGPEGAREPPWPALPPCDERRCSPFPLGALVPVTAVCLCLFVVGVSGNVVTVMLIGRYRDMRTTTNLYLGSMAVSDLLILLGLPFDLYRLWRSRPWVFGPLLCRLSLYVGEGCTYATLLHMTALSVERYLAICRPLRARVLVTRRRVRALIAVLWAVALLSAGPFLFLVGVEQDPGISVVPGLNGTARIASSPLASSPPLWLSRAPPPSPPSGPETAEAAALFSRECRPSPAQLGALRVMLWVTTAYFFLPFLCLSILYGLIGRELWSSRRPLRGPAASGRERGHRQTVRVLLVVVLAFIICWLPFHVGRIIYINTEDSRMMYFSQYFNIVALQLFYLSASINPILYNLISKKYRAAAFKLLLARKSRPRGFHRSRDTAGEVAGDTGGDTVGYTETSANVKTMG

{"columns": ["COMPOUND", "AC50"],
 "data": [
  ["Clc1ccc2c(N3CCN(CCCN4CCN(c5ccnc6cc(Cl)ccc56)CC4)CC3)ccnc2c1", "> 30 µM"],
  ["C[C@]12CCC(=O)C(O)=C1CC[C@@H]1[C@@H]2CC[C@]2(C)C(=O)CC[C@@H]12", "> 30 µM"],
  ["CC(=O)[C@]1(O)Cc2c(O)c3c(c(O)c2[C@@H](O[C@H]2C[C@H](N)[C@H](O)[C@H](C)O2)C1)C(=O)c1ccccc1C3=O", "> 10 µM"],
  ["CC1OC2(CS1)CN1CCC2CC1 (configuration not stated)", "> 10 µM"],
  ["NC1CCN(c2nc3c(cc2F)c(=O)c(C(=O)O)cn3-c2ccc(F)cc2F)C1 (configuration not stated)", "> 30 µM"]
]}

Q: Tell me the measured AC50 of `CN(C)CCCNc1c2ccccc2nc2cccc([N+](=O)[O-])c12` , please.
A: > 30 µM

Q: Tell me the measured AC50 of COc1cc(N)c(Cl)cc1C(=O)NC1CCN(Cc2ccccc2)CC1 [CLEBOPRIDE] , please.
A: > 30 µM

Q: Tell me the measured AC50 of `Nc1cc(-c2ccncc2)c[nH]c1=O` , please.
A: > 10 µM
